# System: NCI-H522 lung
# Measurement protocol: NCI-60 one-dose screen, 48 h (100 = growth as untreated, 0 = no growth, -100 = all killed)
# Condition details: 10 µM unless noted
This is part of a sample that, as a whole, favours compounds with a hit. Of some 83,000 tested, about 20% had one in any assay.
Decision: growth beneath 90% gives Condition met; growth meeting or exceeding 90% gives Condition not met.

Here are 5 compounds together with their reported answers.
compound=N#Cc1ccc(/C=N/NC(=O)c2[nH]c3ccc(Br)cc3c2-c2ccccc2)s1 answer_label="Condition met"
compound=C/C(=N\NC(N)=O)c1c(O)sc(=O)[nH]c1=O answer_label="Condition not met"
compound=Fc1ccc(-c2cc3nc(C(Cl)Cl)nc(-c4ccccc4)n3n2)cc1 answer_label="Condition met"
compound=O=C(NNc1nc2cc(F)ccc2n2c(CN3CC4(COC4)C3)ccc12)c1cnccn1 answer_label="Condition met"
compound=Cc1ccc(CNS(=O)(=O)/N=C2\NC(=O)NC2=C(Cl)Cl)cc1 answer_label="Condition met"

In: Check if growth falls below 90% for CC(=NNc1ncnc2ccccc12)c1ccc(S(C)(=O)=O)cc1 .
Out: Condition not met

In: In plain terms, does C#Cc1nc(C2=C(C)/C(=N/OCc3ccccc3)CC2)cs1 come in under 90% for growth?
Out: Condition met

In: Consider the compound COc1cc2cc(Oc3ccc(NC(=O)c4cccc(C(F)(F)F)c4)cc3)c(C)nc2cc1OCCN1CCCCC1 . Is its growth strictly less than 90%?
Out: Condition met

In: # strict comparison: is reported growth < 90%? input = Clc1ccc2c(NCCCn3ccnc3)c3oc4ccccc4c3nc2c1
Out: Condition met

In: Below 90% on growth? Entry COc1cc(/C=C/C(=O)c2ccc(C)cc2)ccc1Oc1nc(NCCO)nc(N2CCOCC2)n1
Out: Condition met
